molecular target: ATP-dependent translocase ABCB1 (Mus musculus, UniProt P21447); assay: TP_TRANSPORTER: increase in Calcein-AM intracellular accumulation in mdr1a-expressing LLC-PK1 cells
Sequence (P21447 whole entry): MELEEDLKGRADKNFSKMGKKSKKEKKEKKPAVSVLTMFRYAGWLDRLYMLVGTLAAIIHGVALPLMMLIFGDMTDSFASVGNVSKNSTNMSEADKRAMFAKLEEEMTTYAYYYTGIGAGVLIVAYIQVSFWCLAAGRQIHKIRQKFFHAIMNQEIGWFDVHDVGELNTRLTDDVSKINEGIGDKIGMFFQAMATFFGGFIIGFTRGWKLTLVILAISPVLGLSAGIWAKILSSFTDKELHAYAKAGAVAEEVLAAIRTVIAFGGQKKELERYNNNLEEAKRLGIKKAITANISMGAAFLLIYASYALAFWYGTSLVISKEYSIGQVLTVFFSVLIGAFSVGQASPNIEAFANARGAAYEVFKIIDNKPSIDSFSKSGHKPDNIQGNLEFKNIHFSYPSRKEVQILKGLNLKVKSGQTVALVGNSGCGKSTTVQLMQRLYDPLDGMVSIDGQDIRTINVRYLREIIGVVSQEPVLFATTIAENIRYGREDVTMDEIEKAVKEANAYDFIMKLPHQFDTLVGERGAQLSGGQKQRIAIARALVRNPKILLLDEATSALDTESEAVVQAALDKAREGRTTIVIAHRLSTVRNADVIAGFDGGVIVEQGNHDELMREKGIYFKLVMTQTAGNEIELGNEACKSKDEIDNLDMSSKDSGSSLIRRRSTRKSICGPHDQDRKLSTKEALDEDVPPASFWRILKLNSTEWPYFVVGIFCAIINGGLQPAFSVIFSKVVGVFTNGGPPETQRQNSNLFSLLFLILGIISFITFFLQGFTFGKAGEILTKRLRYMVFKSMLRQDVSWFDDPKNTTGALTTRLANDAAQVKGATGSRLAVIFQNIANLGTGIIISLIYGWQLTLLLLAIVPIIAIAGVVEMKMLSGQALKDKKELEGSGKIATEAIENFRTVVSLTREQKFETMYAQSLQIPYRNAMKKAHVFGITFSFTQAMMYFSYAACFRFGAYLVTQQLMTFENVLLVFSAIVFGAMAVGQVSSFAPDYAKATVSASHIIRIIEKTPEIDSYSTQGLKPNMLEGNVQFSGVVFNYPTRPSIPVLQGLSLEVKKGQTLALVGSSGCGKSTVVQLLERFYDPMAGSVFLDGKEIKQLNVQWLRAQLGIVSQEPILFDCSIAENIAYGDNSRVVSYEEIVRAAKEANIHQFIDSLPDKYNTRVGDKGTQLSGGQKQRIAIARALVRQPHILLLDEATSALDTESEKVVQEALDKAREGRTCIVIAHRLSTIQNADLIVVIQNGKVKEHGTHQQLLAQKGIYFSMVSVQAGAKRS
Reported pKi values follow for various compounds
Kindly note that pKi refers to -log10 of the concentration in mol/L and answer with the value alone.

Examples with answers:
[[record]]
compound = "CC(C)[C@@]1(NC(=O)[C@@H]2C[C@@H]3c4cccc5[nH]cc(c45)C[C@H]3N(C)C2)O[C@@]2(O)[C@@H]3CCCN3C(=O)[C@H](Cc3ccccc3)N2C1=O [DIHYDROERGOCRISTINE]"
endpoint_value = 3.95

[[record]]
compound = "CC(C)[C@@]1(NC(=O)[C@@H]2C=C3c4cccc5[nH]cc(c45)C[C@H]3N(C)C2)O[C@@]2(O)[C@@H]3CCCN3C(=O)[C@H](Cc3ccccc3)N2C1=O"
endpoint_value = 4.40


Moving on to the next compound.
(Q) Give recorded pKi with ATP-dependent translocase ABCB1 (Mus musculus, UniProt P21447) for the following compound: CC(C)C[C@H]1C(=O)N2CCC[C@H]2[C@]2(O)O[C@](NC(=O)[C@@H]3C=C4c5cccc6[nH]c(Br)c(c56)C[C@H]4N(C)C3)(C(C)C)C(=O)N12
(A) 5.13
